Cited source: patent US5091528A

- Target Or Test System: alpha-2 adrenergic receptor (Oryctolagus cuniculus, UniProt Q5ZQK3)
- Construct: The prostatic ends of the vasa deferentia (2-3 cm lengths) were mounted between platinum ring electrodes
- Sequence (Q5ZQK3 1-451): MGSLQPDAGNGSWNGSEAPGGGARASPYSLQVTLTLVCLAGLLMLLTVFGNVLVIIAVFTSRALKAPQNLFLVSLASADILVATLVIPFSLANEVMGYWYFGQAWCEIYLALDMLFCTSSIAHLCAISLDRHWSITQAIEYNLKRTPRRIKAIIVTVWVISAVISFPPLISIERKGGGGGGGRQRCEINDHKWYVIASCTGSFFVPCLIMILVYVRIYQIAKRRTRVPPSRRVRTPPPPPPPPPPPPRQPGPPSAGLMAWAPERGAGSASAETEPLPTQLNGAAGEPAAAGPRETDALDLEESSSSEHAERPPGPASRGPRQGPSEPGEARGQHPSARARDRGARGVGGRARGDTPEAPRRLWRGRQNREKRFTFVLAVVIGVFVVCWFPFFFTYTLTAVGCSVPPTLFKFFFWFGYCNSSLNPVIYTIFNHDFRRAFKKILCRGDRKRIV
- Assay Details: Rabbit Vas Deferens Assay (alpha-2 adrenergic receptor activity)
- Conditions Used: field-stimulated rabbit vas deferens, 35 degrees C, 4 minute contact time; read-out: EC50 (effective concentration required for a 50% reduction in response height)
Counter-ions that a name gives are not always drawn.
Measured Quantity: EC50 (nM)

>>> reported_value("CN1C(=O)COc2cc(Br)c(N=C3NCCN3)cc21 [Example 31]")
41.5
>>> reported_value("O=C1COc2c(cc(Br)c(N=C3NCCN3)c2Br)N1 [Example 5]")
0.59
>>> reported_value("O=C1COc2cc(N=C3NCCN3)c(Br)cc2N1 [Example 4, hydrobromide]")
167
>>> reported_value("CCCc1c(N=C2NCCN2)ccc2c1NC(=O)CO2 [Example 56]")
18.1

[A] Cc1cc2c(cc1N=C1NCCN1)NC(=O)CO2 [Example 39]
[B] O=C1COc2cc(Br)c(N=C3NCCN3)c(Br)c2N1 [Example 14]
I'm curious whether A or B has the smaller EC50 number. Which is it? When you have decided, please share the label of that item.
B

[a] CN1C(=O)COc2cc(N=C3NCCN3)c(Br)cc21 [Example 22]
[b] CCc1cc2c(cc1N=C1NCCN1)NC(=O)CO2 [Example 50]
When the recorded EC50 values are compared, which is smaller: that of a or that of b ? Refer to your chosen item by its label in the answer.
b
(b: 8.92 nM, a: 105 nM)
